System: RXF 393 renal
Assay: NCI-60 one-dose screen, 48 h
Conditions: 10 µM unless noted
The panel holds about 83,000 compounds, 20% with a hit somewhere; the sample as a whole holds those more often. Activity calls are given as the source filed them. Rule for the calls: active = growth percent below 10; inactive = the rest.
The reply should be one of these categories: y = active, n = inactive

Test call, this compound: CC(C)(C)n1cc(-c2ccnc(NCCNS(=O)(=O)c3cccc4ccccc34)c2)c(-c2cccc(O)c2)n1
n

Write down the call the test reported for this compound. Item: CCCNNC(=O)c1ccc(CNC(=O)/C=C/c2ccccc2)cc1
y

What is the recorded call for this compound in the test? Cc1ccccc1NC(=O)Cn1cc(CN2CCN(c3ccnc4cc(Cl)ccc34)CC2)nn1
n

Answer briefly: the call reported for Cc1ccc(OCCOCCOCCOCCOc2ccc(C)n(O)c2=S)c(=S)n1O in this assay.
n

====

System: HOP-92 NSCLC
Test: NCI-60 one-dose screen, 48 h (100 = growth as untreated, 0 = no growth, -100 = all killed)
Settings: 10 µM unless noted
The panel holds about 83,000 compounds, 20% with a hit somewhere; the sample as a whole holds those more often.
Would you mind telling me the reported growth of each entry?
Output spec: scalar in %, unitless text.

Query (molecule): Nc1nc(Nc2ccc([N+](=O)[O-])cc2O)nc(C(Cl)(Cl)Cl)n1 ; field requested: growth
49.4

Give its growth value. Item: CC(C)(C)n1cc(-c2ccnc(NCCNS(=O)(=O)c3ccc(C(F)(F)F)cc3)c2)c(-c2ccccc2)n1
3.62

Please report the recorded growth for COc1ccc(C(=O)/C=C/Nc2cc(-c3ccccc3)nn2-c2ccccc2)cc1 .
80.8

// lookup growth for CC1=NN(c2cccc(Cl)c2)C(=O)/C1=C\C=C\c1ccccc1
101

growth for COc1ccc(-c2nc(SCCC(C)C)nc(N/N=C(/C)c3ccc(N)cc3)c2C#N)cc1 ?
96.8

Would you kindly share the measured growth for C#CCOC(=O)C(N)CSSCC(N)C(=O)O (stereo not given) ?
97.5

For the molecule shown here, Cc1ccc(C2=Nc3c(N)nc(N)nc3NC(c3cccc(Nc4ccnc5cc(C(F)(F)F)ccc45)c3)C2)cc1 (stereo not given) , give the reported growth.
28.3

Item CC1(C)C2=C(C(=O)N1Cc1ccccc1)C(c1ccco1)N(C(=O)C1CCC1)CCN2 (stereo not given) has what recorded growth?
115

Which growth value belongs to C#CCOc1cccc(Nc2ncnc3c(NC(=O)CCl)cccc23)c1 ?
-62.1

So what does the record say about growth for Cc1ccc(Nc2cc(N)nc(N)n2)cc1 ?
90

====

Tested on: CAKI-1 renal
Experiment: NCI-60 one-dose screen, 48 h
Conditions: 10 µM unless noted
This is part of a sample that, as a whole, favours compounds with a hit. Of some 83,000 tested, about 20% had one in any assay. Calls of active or inactive are those of the source. The calls were made as follows: active = growth percent below 10; inactive = the rest.
Choose one outcome from this list and give only that: active, inactive

Hi, sorry to bother you, what did the test record for CS(=O)(=O)c1ccc(/C(=N/NC(N)=S)c2ccc(F)cc2)cc1 ?
inactive

For CC(C)c1nc(N(C)S(C)(=O)=O)nc(-c2ccc(F)cc2)c1/C=C/C(=O)C[C@@H](O)CC(=O)O , which call appears in the assay record?
inactive

GET /call?item= CCCCC#Cc1c(I)n(C2OC(CO[Si](C)(C)C(C)(C)C)C3OC(C)(C)OC32)c(=O)[nH]c1=O (stereo unspecified) returns the recorded outcome of this test.
inactive

Hi team, can someone confirm the assay call for CCOC(=O)/C(=C\c1ccccc1Cl)P(=O)(OCC)OCC ?
inactive

Status in this test for CSc1nn2c(-c3cc4cc(Br)ccc4oc3=O)ccnc2c1C#N ?
inactive

Which outcome was entered for the compound CN(C)C(=O)OCc1ccc2c(Cl)cc(Cl)c(O)c2n1 in this test?
inactive

How did this test come out for C=C(C)Cn1c(SCC(=O)c2cccs2)nc2sc3c(c2c1=O)CCCC3 ?
inactive

Dear colleague, could you share the recorded outcome for O=C(/C=C\c1ccc(O)c(O)c1)c1ccccc1O when you have a moment?
active

Fill in: this test's call for CN1CCN(CC(=O)N(C)c2ccc(N=C(c3ccccc3)c3c(O)[nH]c4ccc([N+](=O)[O-])cc34)cc2)CC1 is ___
inactive

Any idea what this test logged for c1ccc(Cn2cc3c(c2)-c2nc(Nc4ccccc4)ncc2CC3)cc1 ?
inactive

Test call for this compound, please: CCCS(=O)(=O)Nc1cccc(Nc2ncnc3cc(NC(=O)CCl)ccc23)c1Cl
active

Could you kindly confirm the outcome this assay logged for COc1ccc(/C=N\NC(=O)c2ccc3nc(-c4ccc(Cl)cc4)[nH]c3c2)cc1 ?
inactive

What is the recorded call for this compound in the test? COc1ccc(Cn2cc3c(c2)-c2oncc2CC3)cc1
inactive

Tell me the recorded outcome of this test for COC(CCP(=O)(c1ccccc1)c1ccccc1)(C(=O)c1ccccc1)c1ccccc1 (stereo unspecified) .
inactive

Per the records of this test, what outcome belongs to O=S(=O)(Nc1ccc(Br)cc1)c1ccc(-c2cnc(C3CC3)o2)cc1 ?
inactive

Would you mind telling me which call this test gave Cn1cc(-c2ccc3occ(-c4cccc(-c5ccncc5)c4)c3n2)cn1 ?
inactive

====

Test system: SNB-19 CNS
Test: NCI-60 one-dose screen, 48 h (100 = growth as untreated, 0 = no growth, -100 = all killed)
Details: 10 µM unless noted
This is part of a sample that, as a whole, favours compounds with a hit. Of some 83,000 tested, about 20% had one in any assay.
Where growth equals or exceeds 30%, the correct label is YES; where it does not, the label is NO.

Say whether Oc1cccc(-c2nc(-c3n[nH]c(=S)n3-c3ccccc3)cc3c2[nH]c2ccccc23)c1 shows growth of 30% or more.
NO

Can CC(C)(C)CC(C)(C)Nc1c(-c2c(O)c3ccccc3oc2=O)nc2sccn12 be said to have growth at or above 30%?
YES

Could you please find out whether Cn1ccnc1C(=O)/C=C/c1ccc(C(=O)Nc2c(F)c(F)c(F)c(F)c2F)cc1 has growth that meets 30% or exceeds it?
NO

# bool: growth of CC(=O)Cc1nsc(NC(=O)c2cc(-c3cc(Cl)ccc3Cl)oc2C)n1 >= 30%
YES

# bool: growth of CC(=O)[C@H]1CC[C@]2(C)[C@@H]1CC[C@@H]1[C@@]3(C)C/C(=C/c4cccnc4)C(=O)C(C)(C)[C@@H]3CC[C@]12C >= 30%
YES

Reported growth at or above 30%? COC(=O)c1cc(-c2cc(OC)c(OC)c(OC)c2)[nH]c1N/N=C/c1c(Cl)cccc1Cl
NO

====

System: OVCAR-3 ovarian
Experiment: NCI-60 one-dose screen, 48 h
Settings: 10 µM unless noted
The panel holds about 83,000 compounds, 20% with a hit somewhere; the sample as a whole holds those more often. Calls of active or inactive are those of the source. Rule for the calls: active = growth percent below 10; inactive = the rest.
Entry note: the call must match one of active, inactive

What call does the record list for CN1CCN(CCCNC(=O)c2c3c(n4ccccc24)C(=O)c2ncccc2C3=O)CC1 ?
active

So what was the verdict on N=C(N)c1ccc(-c2ccc(-c3ccccc3)s2)nc1 in this test?
inactive

Look up the recorded call for C[C@H]1c2ccccc2CN1CCCOc1cc2c(cc1OCC1CC1)C1(CCCC1)C(N)=N2 in this test.
inactive

Would you mind telling me which call this test gave Cc1cc(C)n(C(=O)CSc2nc3sc4c(c3c(=O)n2-c2ccccc2)CCCCC4)n1 ?
inactive

====

Tested on: A549/ATCC NSCLC
Experiment: NCI-60 one-dose screen, 48 h (100 = growth as untreated, 0 = no growth, -100 = all killed)
Settings: 10 µM unless noted
The panel holds about 83,000 compounds, 20% with a hit somewhere; the sample as a whole holds those more often.
# if measured growth < 60%: criterion met  # else: criterion not met

Decide: growth of C#C[C@]1(O)CC[C@H]2[C@@H]3CC=C4c5sc(-c6ccccc6)nc5CC[C@]4(C)[C@H]3CC[C@@]21C strictly below 60%?
criterion not met

Does the reported growth of the following compound sit strictly below 60%? C1=C2CCCC3=Cc4ccccc4OC23Oc2ccccc21
criterion met

Dear colleague, could you confirm whether growth of CSc1nc(N)c2c(n1)NC(c1ccccc1)C1CCc3ccccc3C1=N2 (stereo unspecified) falls below 60%? Thanks.
criterion not met

Is it true that growth reported for CN(C)c1ccc(Cc2cc(-c3ccccc3)nn(C/C(=N/O)c3ccccc3)c2=O)cc1 is less than 60%?
criterion met

For Cn1cc(-c2nc(-c3c[nH]c4c(Cl)nccc34)cs2)c2ccccc21 , is the recorded growth below the cut-off of 60%?
criterion not met

====

Tested on: SK-MEL-5 melanoma
Assay: NCI-60 one-dose screen, 48 h (100 = growth as untreated, 0 = no growth, -100 = all killed)
Settings: 10 µM unless noted
About 83,000 compounds went through this panel and 20% of them were active in at least one assay; those are over-represented in the sample as a whole. Active and inactive are the calls of the source. Rule for the calls: active = growth percent below 10; inactive = the rest.
For each of the compounds below, state its growth.

Any idea what its growth is? The compound is CCOC(=O)CC1C(CNC(=O)NC)OC(n2cnc3c(NC(=O)Nc4ccccc4)ncnc32)C1O[Si](C)(C)C(C)(C)C (stereo not given)
58.3% (inactive)

Which value of growth has been reported for Cc1c2ccncc2c(C)c2c1c1ccccc1n2CCCCCC(=O)O in the records?
89.8% (inactive)

Return reported growth; argument: C=C(CNCCc1ccc(O)cc1)[C@@H]1CC[C@]2(CO)CC[C@]3(C)[C@H](CC[C@@H]4[C@@]5(C)CCC(N)C(C)(C)[C@@H]5CC[C@]43C)[C@@H]12 (stereo not given in full)
-95.2% (active)

For the compound shown here, CCN1CCN(CCOc2ccc(CNc3ccc4nc(CCC5CCCCC5)[nH]c4c3)cc2)CC1 , give the reported growth.
-96.5% (active)

For the compound shown here, C=CN(C(=O)N1CCN(c2cc3c(cc2F)c(=O)c(C(=O)O)cn3C2CC2)CC1)c1nc(-c2ccc(C)cc2)cs1 , give the reported growth.
26.6% (inactive)
